// data source = patent US7528115B2

# TEST METHOD NOTES: Animal PK: oral availability of 53b in cynomolgus monkeys after dosing of Formula I prodrugs
# Type: in vivo
# TEST PARAMETERS: cynomolgus monkey, plasma; 53b dosed IV, 10 mg/kg, cynomolgus monkeys; mean of all individual AUC(0-inf) values

{"columns": ["MOLECULE", "AUC(0-inf)"],
 "data": [
  ["Nc1nc2c(sc(=O)n2C2O[C@H](CO)[C@H](O)[C@H]2O)c(=O)[nH]1 (stereo partly shown) [Compound 53b]", "15200 ng·h/mL"]
]}
